Reference source: paper PMC6795141

Biological target: T1, PaTrmD (refolded) (Pseudomonas aeruginosa PA14, UniProt Q02RL6 5-250)
T1 sequence: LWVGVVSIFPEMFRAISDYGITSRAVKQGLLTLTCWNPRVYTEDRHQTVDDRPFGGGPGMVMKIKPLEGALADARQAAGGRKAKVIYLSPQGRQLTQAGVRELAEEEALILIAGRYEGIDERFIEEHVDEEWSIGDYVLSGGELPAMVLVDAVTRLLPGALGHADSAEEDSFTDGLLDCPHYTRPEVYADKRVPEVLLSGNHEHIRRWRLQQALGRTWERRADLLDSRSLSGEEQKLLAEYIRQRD
Assay: ITC
pKd: −log10 of the molar value.

binder	pKd
tRNALeu(GAG) (structured_RNA, none (unmodified transcript)) RNA: GGGGCCGAGGUGGUGGAAUUGGUAGACACGCUACCUUGAGGUGGUAGUGGCCAUAGGCUGUAGGGGUUCGAGUCCCCUCCUCGGUACCA	4.87
